- study system: human HSP90 alpha protein (HSP90 N-terminal protein, amino acids 2-236) (Homo sapiens (Human), UniProt P07900)
- measurement description: Measurement of HSP90-binding activity (AlphaScreen competitive assay, biotin-labeled geldanamycin)
- condition notes: concentration inhibiting binding of biotin-labeled geldanamycin (40 nM) to purified HSP90 to 50% of control; read-out: HSP-binding activity IC50
Reported pIC50 by item:
Answer as the number alone; pIC50 is minus log10 of concentration in mol/L.

# count of solved cases: 6
Q) Name the recorded pIC50 of the compound listed here: Cc1cc(C(N)=O)ccc1-n1nc(C(F)(F)F)c2c(-n3cnc(-c4cnn(C)c4)c3)ccnc21 [Example 154]
A) 6.85

Q) Name the recorded pIC50 of the compound listed here: CC(C)c1nn(-c2ccc(C(N)=O)c(NC3CCN(C)CC3)c2)c2nccc(-c3cnc4ccccc4c3)c12 [Example 24]
A) 6.64

Q) Name the recorded pIC50 of the compound listed here: Cn1cc(-c2cn(-c3ccnc4c3c(C(F)(F)F)nn4-c3ccc(C(N)=O)cc3NC3CCC3)cn2)cn1 [Example 165]
A) 6.92

Q) Name the recorded pIC50 of the compound listed here: CC(C)c1nn(-c2ccc(C(N)=O)c(NCC(F)F)c2)c2nccc(-n3cnc(-c4cnn(C)c4)c3)c12 [Example 113]
A) 6.59

Q) Name the recorded pIC50 of the compound listed here: CC(C)c1nn(-c2ccc(C(N)=O)cc2N)c2nccc(-n3cnc(-c4cnn(C)c4)c3)c12 [Example 107]
A) 6.70

Q) Name the recorded pIC50 of the compound listed here: CCc1c(-n2nc(C(C)C)c3c(-n4cnc(-c5cnn(C)c5)c4)ccnc32)ccc(C(N)=O)c1N [Example 134]
A) 6.70

Further cases:
Q) Name the recorded pIC50 of the compound listed here: NCC(=O)O[C@H]1CC[C@H](Nc2cc(-n3cc(C(F)(F)F)c4c(-c5cnc6ccccc6c5)ccnc43)ccc2C(N)=O)CC1 [Example 44, dimethanesulfonate]
A) 6.89
